Tested on: CAKI-1 renal
Test: NCI-60 one-dose screen, 48 h
Details: 10 µM unless noted
About 83,000 compounds went through this panel and 20% of them were active in at least one assay; those are over-represented in the sample as a whole. Activity calls are given as the source filed them. Rule for the calls: active = growth percent below 10; inactive = the rest.
API: response.call in active, inactive

Recorded results for 3 compounds are shown here.
{"columns": ["compound", "assigned class"],
 "data": [
  ["O=c1oc2ccccc2cc1-c1csc(N2N=C(c3ccccc3)CC2c2ccc(N3CCOCC3)cc2)n1 (stereo not given)", "inactive"],
  ["Cn1cc(-c2cc3nc(-c4cn(C)c5ncc(Br)cc45)cc(N)n3n2)c2cc(Cl)ccc21", "active"],
  ["O=C(Cn1c(/C=C/c2ccccc2)nc2ccccc2c1=O)Nc1ccc(Cl)cc1", "inactive"]
]}

How was CCOc1ccc(C(=O)NC(=S)Nc2ccc(S(N)(=O)=O)cc2)cc1 classified in this test?
inactive

How was Cc1ccc2c(N)c(C(=O)Nc3ccc(-c4ccccc4)cc3)sc2n1 classified in this test?
inactive

How was CC(=O)c1cc(C(=O)c2ccccc2)n2c1ccc1ccccc12 classified in this test?
inactive

----------
Test system: SR leukemia
Experiment: NCI-60 one-dose screen, 48 h (100 = growth as untreated, 0 = no growth, -100 = all killed)
Settings: 10 µM unless noted
This is part of a sample that, as a whole, favours compounds with a hit. Of some 83,000 tested, about 20% had one in any assay.
Label 1 when growth is at or above 60%; anything below gets -1.

Recorded results for 4 molecules are shown here.
{"columns": ["molecule", "assigned class"],
 "data": [
  ["CC(=O)c1cc(C(=O)c2ccccc2)n2c1ccc1ccccc12", 1],
  ["COc1ccc(C2=NN(c3ccccc3)C(c3ccc(OC)c(OCc4ccccc4)c3)C2)cc1OC (stereo not given)", 1],
  ["CC1(C)CC[C@]2(C(=O)Nc3ccc(Br)cc3)CC[C@]3(C)C(=CCC4[C@@]5(C)C[C@@H](O)[C@H](O)[C@@](C)(CO)C5CC[C@]43C)C2C1 (stereo not given in full)", -1],
  ["Cc1ccc2c(N)c(C(=O)Nc3ccc(OC(F)(F)F)cc3)sc2n1", -1]
]}

// next entry
hey, is growth for this one >= 60%? COc1ccc(C2CC(c3ccc(S(=O)(=O)NCCNc4nc(Nc5ccc(F)cc5)nc(N(C)C)n4)cc3)=Nc3c(N)nc(N)nc3N2)cc1 (stereo not given)
-1

----------
Tested on: NCI-H460 lung
Test: NCI-60 one-dose screen, 48 h (100 = growth as untreated, 0 = no growth, -100 = all killed)
Details: 10 µM unless noted
This is part of a sample that, as a whole, favours compounds with a hit. Of some 83,000 tested, about 20% had one in any assay.
Reported growth values follow for various compounds
The response must be a number in % with no trailing unit.

{"columns": ["compound", "units symbol", "growth"],
 "data": [
  ["O=C1/C(=C/C2=Cc3ccccc3OC2)SC(=S)N1c1ccccc1F", "%", 121],
  ["NS(=O)(=O)c1ccc(N=Nc2c(O)n(CC(=O)Nc3ccccc3Cl)c3ccccc23)cc1", "%", 14.5],
  ["CC1=C(C#N)C2=NNCC(c3ccccc3)=NN2C(c2ccccc2)=C1", "%", 111],
  ["COc1c(F)ccc(C(=O)Nc2ccc3nc(NC(=O)C4CCCN(S(=O)(=O)c5cccc(C(F)(F)F)c5)C4)sc3c2)c1F (centres undefined)", "%", 79.4]
]}

Please give the measured growth for this compound: COc1ccc(-c2nc3cc(C)ccc3n2CC(=O)N=Nc2c(O)[nH]c3ccc(Cl)cc23)cc1
10.6

Where do the numbers come from? From PubChem BioAssay (NCI).
